System: monoclonal antibody PG9
Procedure Details: ELISA of minimal epitope scaffolds with PG9
Format: binding, human
Test Parameters: GnTI- cell expression
Value Type: binding to monoclonal antibody PG9

Completed entries (count: 5):
molecule="2zjr_a: minimal PG9 epitope-scaffold, SEQ ID NO: 17, native scaffold PDB 2ZJR (protein, Human immunodeficiency virus) SHYDILQAPVISEKAYSAMERGVYSFWVSPGATKTEIKDAIQQAFGVRVIGISVKHCSFNITTDVKDRKQKVNATFAIVRLAEGQSIEALAGQ" recorded_result=bind
molecule="1YN3_A: minimal PG9 epitope-scaffold, SEQ ID NO: 28, native scaffold PDB 1YN3 (protein, Human immunodeficiency virus) GSHVSFNITTDVKDRKQKVNATFYKNQNISYKDLEGKVKSVLESNRGITDVDLRLSKQAKYTVNFKNGTKKVIDLKSGIYTANLINSSDIKSININID" recorded_result=bind
molecule="3pyr_a: minimal PG9 epitope-scaffold, SEQ ID NO: 76, native scaffold PDB 3PYR (protein, Human immunodeficiency virus) MKTAYDVILAPVLSEKAYAGFAEGKYTFWVHPKATKTEIKNAVETAFKVKVVKVNTKHASFNITTDVKDRKQKVNATFAIVQVAPGQKIEALEGLIG" recorded_result=bind
molecule="2vxs_a: minimal PG9 epitope-scaffold, SEQ ID NO: 37, native scaffold PDB 2VXS (protein, Human immunodeficiency virus) TNPKRSSDYYNRSTSPWNLHRNEDPERYPSVIWEAKCRHLGCINADGNVDYHMNSISQNITTDVKDRKQKVNATCTCVTPIVH" recorded_result=bind
molecule="2zjr_b: minimal PG9 epitope-scaffold, SEQ ID NO: 18, native scaffold PDB 2ZJR (protein, Human immunodeficiency virus) SHYDILQAPVISEKAYSAMERGVYSFWVSPGATKTEIKDAIQQAFGVRVIGISTKHASFNITTDVKDRKQKVNATFAIVRLAEGQSIEALAGQ" recorded_result=bind

Per the record, 1x3e_a: minimal PG9 epitope-scaffold, SEQ ID NO: 66, native scaffold PDB 1X3E (protein, Human immunodeficiency virus) GDTTITVVGNLTADPELRFTPSGAAVANFTVASTGSALFLRCNIWREAAENVAESLTRGSRVIVTGRLKVKHCSFNITTDVKDRKQKVNATFYEVEVDEIGPSLR has binding to monoclonal antibody PG9 of bind

Short answer for 1vh8 b: minimal PG9 epitope-scaffold, SEQ ID NO: 64, native scaffold PDB 1VH8 (protein, Human immunodeficiency virus) SLIRIGHGFDVHAFVKHASFNITTDVKDRKQKVNATFYFIAHSDGDVALHALTDAILGAAALGDIGKLFPKNADSRGLLREAFRQVQEKGYKIGNVDITIIAQAPKMRPHIDAMRAKIAEDLQCDIEQVNVKATTTEKLGFTGRQEGIACEAVALLIRQ : binding to monoclonal antibody PG9 was bind

Reported binding to monoclonal antibody PG9 for 1vh8_c: minimal PG9 epitope-scaffold, SEQ ID NO: 65, native scaffold PDB 1VH8 (protein, Human immunodeficiency virus) SLIRIGHGFDVHAFGKHASFNITTDVKDRKQKVNATFGFIAHSDGDVALHALTDAILGAAALGDIGKLFPKNADSRGLLREAFRQVQEKGYKIGNVDITIIAQAPKMRPHIDAMRAKIAEDLQCDIEQVNVKATTTEKLGFTGRQEGIACEAVALLIRQ was bind

// field: binding to monoclonal antibody PG9; key: 1t0a_a: minimal PG9 epitope-scaffold, SEQ ID NO: 77, native scaffold PDB 1T0A (protein, Human immunodeficiency virus) KIRIGHGFDVHKFGKHASFNITTDVKDRKQKVNATFGLVAHSDGDVVLHAISDAILGAMALGDIGKHFPDTDAAYKGADSRVLLRHCYALAKAKGFELGNLDVTIIAQAPKMAPHIEDMRQVLAADLNADVADINVKATTTEKLGFTGRKEGIAVEAVVLLSRQG ; value = bind

For this molecule ( 2f7s_B: minimal PG9 epitope-scaffold, SEQ ID NO: 52, native scaffold PDB 2F7S (protein, Human immunodeficiency virus) DYDYLIKLLALGDSGVGKTTFLYRYTDNKFNPKFITTVGIDVKHASFNITTDVKDRKQKVNATFYDTAGQERFRSLTTAFFRDAMGFLLMFDLTSQQSFLNVRNWMSQLQANAYCENPDIVLIGNKADLPDQREVNERQARELADKYGIPYFETSAATGQNVEKAVETLLDLIMKRMEQCVE ), measured binding to monoclonal antibody PG9 is bind

The origin of these recorded values is patent US20140348865A1.
